tested on: FGFR1; settings: Compound Concentration (nM):1000;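 further: KINOMEscan scanMAX binding as percent activity remaining versus control; lower means stronger binding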
property: Percent Control (%)

* COc1cc(C=NNc2ncnc3c2cnn3-c2ccccc2)ccc1O [GW513184X] | 100
* Cl.O=C(O[C@H]1CN[C@H](C#Cc2cc3ncnc(Nc4ccc5c(cnn5Cc5ccccc5)c4)c3s2)C1)N1CCOCC1 [GSK200398A] | 100
* COC(=O)Nc1nc2ccc(Oc3ccc(NC(=O)Nc4cc(C(F)(F)F)ccc4F)cc3)cc2s1.Cl [GW693917A] | 51
* Cl.c1ccc(Cc2nc3ccc(Nc4ncnc5ccccc45)cc3[nH]2)cc1 [GR269666A] | 100
* COc1ccc2[nH]c3c4[nH]c5ccc(OC)cc5c4c4c(c3c2c1)C(=O)NC4=O [GW296115X] | 100
* NS(=O)(=O)c1ccc(Nc2ncc(-c3ccccc3)o2)cc1 [GW572399X] | 100
* O=C1Nc2ccc(C(=O)c3ccco3)cc2C1=Cc1cc(Cl)c(O)c(Cl)c1 [GW406108X] | 100
* NS(=O)(=O)c1ccc(N/N=C2\C(=O)Nc3ccc(C(=O)NCc4ccncc4)cc32)cc1 [GW300657X] | 91

###

system: IRAK3; details: Compound Concentration (nM):1000
property: Percent Control (%)

• COc1ccc2cc(-c3c(-c4ccncc4)nc(-c4ccc(S(C)(=O)=O)cc4C)n3C)ccc2c1 = 75
• COc1ccc(COc2ccc(Cc3cnc(N)nc3N)cc2OC)cc1 [GW632580X] = 100
• CCn1c(-c2nonc2N)nc2c(C#CC(C)(C)O)nc(OCCNC)cc21.Cl = 100
• COc1cc(/C=N/Nc2ncnc3[nH]ncc23)ccc1O [GW578748X] = 100
• CC1=C(C(=O)Nc2ccc3[nH]ncc3c2)C(c2ccc(Cl)c(Cl)c2)CC(=O)N1 (centres unmarked) [GSK299115A] = 56

###

system: ERK2; construct: gene MAPK1; conditions: Compound Concentration (nM):1000
property: Percent Control

* COc1cc(N2CCN(C(C)C)CC2)ccc1Nc1nc(Nc2ccc(F)cc2C(=O)NC[C@@H](O)CO)c2cc[nH]c2n1 [GSK1392956A] | 99%
* O=C(Nc1n[nH]c2nc(-c3ccc(O)cc3)c(Br)cc12)C1CC1 [SB-725317] | 100%
* Cl.O=C(O[C@H]1CN[C@H](C#Cc2cc3ncnc(Nc4ccc5c(cnn5Cc5ccccc5)c4)c3s2)C1)N1CCOCC1 [GSK200398A] | 100%
* Cl.O=S1CCN(Cc2ccc(-c3ccc4ncnc(Nc5ccc(OCc6ccccc6)c(F)c5)c4c3)o2)CC1 [GW576924A] | 100%

###

system: MAP3K15; conditions: Compound Concentration (nM):1000
Listing of recorded Percent Control by entry.
property: Percent Control

- CCn1c(-c2nonc2N)nc2c(C#CC(C)(C)O)nc(OCCNC)cc21.Cl [GSK949675]: 100%
- COc1ccc2[nH]c3c4[nH]c5ccc(OC)cc5c4c4c(c3c2c1)C(=O)NC4=O [GW296115X]: 64%
- COc1ccccc1-c1cc(/C=C2\C(=O)Nc3ncc(Br)cc32)cc(Br)c1O [GW442130X]: 89%
- COc1ccc2c(-c3ccnc(Nc4cccc(OC(F)(F)F)c4)n3)cnn2n1 [GW810372X]: 100%
- NS(=O)(=O)c1ccc(N/N=C2\C(=O)Nc3ccc(C(=O)NCCc4c[nH]cn4)cc32)cc1 [GW300660X]: 100%
- CCS(=O)(=O)c1ccc(OC)c(Nc2ncc(-c3cccc(F)c3)o2)c1 [GW621970X]: 95%
- COc1cccc(-c2c[nH]c3c(N/N=C/c4ccncc4)ncnc23)c1 [GW814408X]: 100%
- COC(=O)Nc1nc2ccc(Oc3ccc(NC(=O)Nc4cc(C(F)(F)F)ccc4F)cc3)cc2s1.Cl [GW693917A]: 100%
